Numbers sourced from patent US10676429B2.

Test system: HBV
experimental.details: Anti-HBV activity in stable transfected HepG2.2.15 cell line (HBV DNA from secreted virions, realtime PCR)
Assay type: cell-based
particulars: Hepatitis B virus, HepG2.2.15, 144 h, HepG2.2.15 cells, 6 days of treatment, secreted virion HBV DNA; read-out: HepG2 2.15 EC50
readout: EC50 (µM)
Respond with the bare value in µM.

Below, each entry is followed by its recorded EC50 result.
>  <molecule>
Cc1cc(NC(=O)c2cccc(S(=O)(=O)NC3(C(F)(F)F)CC3)c2)ccc1F

>  <EC50, µM>
0.08

$$$$
>  <molecule>
C=Cc1cc(NC(=O)c2cccc(S(=O)(=O)NC3(C)COC3)c2)ccc1F

>  <EC50, µM>
0.66

$$$$
>  <molecule>
Cc1cc(NC(=O)c2cccc(S(=O)(=O)NC3CCS(=O)(=O)C3)c2)ccc1F (centres unmarked)

>  <EC50, µM>
1.1

$$$$
>  <molecule>
O=C(Nc1ccc(Cl)cc1)c1cc(S(=O)(=O)NC2CCCC2)ccc1F

>  <EC50, µM>
3.98

$$$$
>  <molecule>
O=C(Nc1ccc(F)c(F)c1)c1cccc(S(=O)(=O)N[C@H]2CCOC2)c1

>  <EC50, µM>
0.38

$$$$

INPUT: Sample Cc1cc(NC(=O)c2cccc(S(=O)(=O)NC3CCN(C)C3=O)c2)ccc1F (centres unmarked) — what was its EC50?
OUTPUT: 2.59

INPUT: Likewise for CN1CCC(NS(=O)(=O)c2cccc(C(=O)Nc3ccc(F)cc3)c2)CC1 ?
OUTPUT: 59.3

INPUT: Likewise for COc1ccc(NC(=O)c2cccc(S(=O)(=O)N[C@H]3CCOC3)c2)cc1C ?
OUTPUT: 7.82
